molecular target: TACR1 (Homo sapiens, UniProt P25103); construct: purchased Promega (in-house HiBiT-GPCR construct library, NanoBRET); experiment: NanoBRET screen HiBiT-TACR1 in HEK293; assay type: binding; conditions: TACR1; tracer 0.1μM
Sequence (P25103 whole entry): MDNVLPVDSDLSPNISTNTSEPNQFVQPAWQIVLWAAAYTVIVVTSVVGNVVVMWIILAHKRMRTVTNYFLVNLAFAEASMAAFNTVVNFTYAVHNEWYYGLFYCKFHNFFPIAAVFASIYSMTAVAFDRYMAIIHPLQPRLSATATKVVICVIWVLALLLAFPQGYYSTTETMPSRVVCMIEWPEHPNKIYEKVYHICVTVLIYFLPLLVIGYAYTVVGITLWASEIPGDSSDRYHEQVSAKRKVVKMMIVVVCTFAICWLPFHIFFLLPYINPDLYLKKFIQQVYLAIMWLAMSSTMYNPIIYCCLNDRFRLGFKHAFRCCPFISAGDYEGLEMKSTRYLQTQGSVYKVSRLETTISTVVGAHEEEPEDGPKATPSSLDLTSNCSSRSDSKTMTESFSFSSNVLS
# label = 1 if NanoBRET Fold Response < 1 else -1

| Compound | Target entity | Discrete label |
| --- | --- | --- |
| O=C(CCc1ccc2n1[B-](F)(F)[N+]1=C(c3ccc[nH]3)C=CC1=C2)NCc1ccc(C(=O)NCCOCCC(=O)N[C@@H]2CC[C@@]3(O)[C@H]4Cc5ccc(O)c6c5[C@@]3(CCN4CC3CC3)[C@H]2O6)cc1 [Naltrexone-3-NB590] | TACR1 (Homo sapiens, UniProt P25103) | -1 |
| Cc1cc2c(s1)Nc1ccccc1N=C2N1CCN(CCCNC(=O)CCOCCOCCOCCOCCNC(=O)CCc2ccc3n2[B-](F)(F)[N+]2=C(c4ccc[nH]4)C=CC2=C3)CC1 [Olanzapine-a-2-NB590] | TACR1 (Homo sapiens, UniProt P25103) | -1 |
| O=C(CCOCCOCCOCCOCCNC(=O)CCc1ccc2n1[B-](F)(F)[N+]1=C(c3ccc[nH]3)C=CC1=C2)NCCCN1CCN(C2=Nc3ccccc3Oc3ccc(Cl)cc32)CC1 [Loxapine-a-2-NB590] | TACR1 (Homo sapiens, UniProt P25103) | -1 |
| COc1ccccc1N1CCN(CCCCN2C(=O)c3ccc(CNC(=O)CCOCCNC(=O)c4ccc(CNC(=O)CCc5ccc6n5[B-](F)(F)[N+]5=C(c7ccc[nH]7)C=CC5=C6)cc4)cc3C2=O)CC1 [NAN-190-3-NB590] | TACR1 (Homo sapiens, UniProt P25103) | -1 |
| Cc1nc2n(c(=O)c1CCN1CCC(c3noc4cc(F)ccc34)CC1)CCCC2OC(=O)NCCOCCOCCOCCOCCNC(=O)CCc1ccc2n1[B-](F)(F)[N+]1=C(c3ccc[nH]3)C=CC1=C2 (stereo not shown) [Risperidone-2-NB590] | TACR1 (Homo sapiens, UniProt P25103) | -1 |

Prompt: Does this compound meet the criterion NanoBRET Fold Response < 1? CC(C)N(CC[C@H](c1ccccc1)c1cc(CCNC(=O)c2ccc(CNC(=O)CCc3ccc4n3[B-](F)(F)[N+]3=C(c5ccc[nH]5)C=CC3=C4)cc2)ccc1O)C(C)C [Tolterodine-BZ-NB590]
Response: 1

Prompt: hey, is NanoBRET Fold Response for CC(C)N(CC[C@H](c1ccccc1)c1cc(CCNC(=O)CCOCCOCCOCCOCCNC(=O)CCc2ccc3n2[B-](F)(F)[N+]2=C(c4ccc[nH]4)C=CC2=C3)ccc1O)C(C)C [Tolterodine-2-NB590] lower than 1 or not?
Response: -1

Prompt: Does O=C(CCc1ccc2n1[B-](F)(F)[N+]1=C(c3ccc[nH]3)C=CC1=C2)NCCOCCOCCNC(=O)OCCOCCN1CCN(C2=Nc3ccccc3Sc3ccccc32)CC1 [Quetiapine-a-2-NB590] have NanoBRET Fold Response strictly under 1?
Response: 1

----------
Exercise: for every item that follows, state its recorded NanoBRET Fold Response.
molecular target: HTR2A (Homo sapiens, UniProt P28223); construct: purchased Promega (in-house HiBiT-GPCR construct library, NanoBRET); test: NanoBRET screen HiBiT-HTR2A in HEK293; format: binding; conditions: HTR2A; tracer 0.1μM
Sequence (P28223 whole entry): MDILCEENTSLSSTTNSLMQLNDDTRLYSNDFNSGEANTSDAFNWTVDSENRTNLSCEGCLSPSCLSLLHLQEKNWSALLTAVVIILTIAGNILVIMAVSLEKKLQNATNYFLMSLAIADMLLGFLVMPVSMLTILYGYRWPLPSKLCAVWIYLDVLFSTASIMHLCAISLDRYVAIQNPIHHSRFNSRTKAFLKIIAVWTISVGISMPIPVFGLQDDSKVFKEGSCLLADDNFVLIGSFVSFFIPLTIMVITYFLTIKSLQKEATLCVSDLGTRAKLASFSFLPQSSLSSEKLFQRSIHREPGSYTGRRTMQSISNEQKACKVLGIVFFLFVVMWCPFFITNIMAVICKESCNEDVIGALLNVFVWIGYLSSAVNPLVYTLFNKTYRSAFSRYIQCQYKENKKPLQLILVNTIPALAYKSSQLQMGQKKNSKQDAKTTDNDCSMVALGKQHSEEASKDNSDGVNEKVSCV
Give bare numbers.

Here's what some known entries look like.
| Chem smiles | Observed result |
| --- | --- |
| CCCn1c(=O)c2[nH]c(-c3ccc(OCC(=O)NCCNC(=O)CCOCCNC(=O)c4ccc(CNC(=O)CCc5ccc6n5[B-](F)(F)[N+]5=C(c7ccc[nH]7)C=CC5=C6)cc4)cc3)nc2n(CCC)c1=O | 0.99 |
| N#CN=C(NCCCOc1cccc(CN2CCCCC2)c1)NCCNC(=O)CCOCCOCCOCCOCCNC(=O)CCc1ccc2n1[B-](F)(F)[N+]1=C(c3ccc[nH]3)C=CC1=C2 | 0.98 |

Hey, quick one: what's NanoBRET Fold Response for each of these?
1. CC(C)N(CC[C@H](c1ccccc1)c1cc(CCNC(=O)CCOCCOCCOCCOCCNC(=O)CCc2ccc3n2[B-](F)(F)[N+]2=C(c4ccc[nH]4)C=CC2=C3)ccc1O)C(C)C
2. CC(C)N(CC[C@H](c1ccccc1)c1cc(CCNC(=O)c2ccc(CNC(=O)CCc3ccc4n3[B-](F)(F)[N+]3=C(c5ccc[nH]5)C=CC3=C4)cc2)ccc1O)C(C)C

Response:
[1.05, 0.93]

----------
target: GPR50 (Homo sapiens); construct: purchased Promega (in-house HiBiT-GPCR construct library, NanoBRET); experiment: NanoBRET screen HiBiT-GPR50 in HEK293; format: binding; conditions: GPR50; tracer 0.1μM
Sequence (Q13585 whole entry): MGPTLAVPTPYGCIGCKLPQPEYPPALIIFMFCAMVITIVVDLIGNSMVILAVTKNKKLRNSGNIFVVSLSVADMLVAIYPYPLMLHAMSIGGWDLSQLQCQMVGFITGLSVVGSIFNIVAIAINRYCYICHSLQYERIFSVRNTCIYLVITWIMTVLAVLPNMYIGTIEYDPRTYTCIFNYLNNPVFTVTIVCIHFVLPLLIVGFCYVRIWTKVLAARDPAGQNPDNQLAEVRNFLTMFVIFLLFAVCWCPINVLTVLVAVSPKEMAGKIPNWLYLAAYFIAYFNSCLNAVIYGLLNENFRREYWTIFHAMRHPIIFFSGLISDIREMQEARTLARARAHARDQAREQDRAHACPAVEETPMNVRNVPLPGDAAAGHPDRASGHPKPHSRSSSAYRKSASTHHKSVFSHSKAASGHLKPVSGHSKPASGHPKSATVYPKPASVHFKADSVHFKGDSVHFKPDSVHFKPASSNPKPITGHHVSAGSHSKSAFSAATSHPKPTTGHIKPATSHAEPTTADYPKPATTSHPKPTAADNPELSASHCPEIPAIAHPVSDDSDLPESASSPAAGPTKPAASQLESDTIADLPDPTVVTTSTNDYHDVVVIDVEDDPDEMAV
Please respond with reported NanoBRET Fold Response for every item in the list.
Numbers only.

| Chem smiles | NanoBRET Fold Response |
| --- | --- |
| CN(C)CCC=C1c2ccccc2CCc2ccc(C(=O)NCCNC(=O)CCOCCOCCOCCOCCNC(=O)CCc3ccc4n3[B-](F)(F)[N+]3=C(c5ccc[nH]5)C=CC3=C4)cc21 | 0.99 |
| Cc1cc2c(s1)Nc1ccccc1N=C2N1CCN(CCCNC(=O)CCOCCOCCOCCOCCNC(=O)CCc2ccc3n2[B-](F)(F)[N+]2=C(c4ccc[nH]4)C=CC2=C3)CC1 | 1.01 |

For the next question, use this compound.
Memo: O=C(CCOCCOCCOCCOCCNC(=O)CCc1ccc2n1[B-](F)(F)[N+]1=C(c3ccc[nH]3)C=CC1=C2)NCCCN1CCN(C2=Nc3ccccc3Oc3ccc(Cl)cc32)CC1 , reported NanoBRET Fold Response: 0.74

----------
target: DRD4 (Homo sapiens, UniProt P21917); construct: purchased Promega (in-house HiBiT-GPCR construct library, NanoBRET); experiment: NanoBRET screen HiBiT-DRD4 in HEK293; type: binding; details: DRD4; tracer 1μM
Sequence (P21917 whole entry): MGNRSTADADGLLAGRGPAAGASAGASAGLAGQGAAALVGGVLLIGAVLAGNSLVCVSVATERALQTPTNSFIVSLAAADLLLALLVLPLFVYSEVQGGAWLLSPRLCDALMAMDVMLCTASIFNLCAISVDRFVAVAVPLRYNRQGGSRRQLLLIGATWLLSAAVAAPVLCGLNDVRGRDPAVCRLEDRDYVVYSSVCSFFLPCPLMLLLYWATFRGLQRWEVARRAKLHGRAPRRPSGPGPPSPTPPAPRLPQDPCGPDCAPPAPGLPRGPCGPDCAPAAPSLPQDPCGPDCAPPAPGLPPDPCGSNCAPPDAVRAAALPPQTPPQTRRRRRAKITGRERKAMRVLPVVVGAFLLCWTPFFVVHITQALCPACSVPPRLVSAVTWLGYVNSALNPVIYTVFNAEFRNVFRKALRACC
Observation type: NanoBRET Fold Response
Give bare numbers.

The examples below pair each entry with its known result.
| Compound | Target entity | NanoBRET Fold Response |
| --- | --- | --- |
| Cc1cc2c(s1)Nc1ccccc1N=C2N1CCN(CCCNC(=O)CCOCCOCCOCCOCCNC(=O)CCc2ccc3n2[B-](F)(F)[N+]2=C(c4ccc[nH]4)C=CC2=C3)CC1 | DRD4 (Homo sapiens, UniProt P21917) | 2.27 |
| Cc1nc2n(c(=O)c1CCN1CCC(c3noc4cc(F)ccc34)CC1)CCCC2OC(=O)NCCOCCOCCOCCOCCNC(=O)CCc1ccc2n1[B-](F)(F)[N+]1=C(c3ccc[nH]3)C=CC1=C2 (stereo not drawn) | DRD4 (Homo sapiens, UniProt P21917) | 3.40 |

For every listed record, write down its NanoBRET Fold Response.
1. COc1ccccc1N1CCN(CCCCN2C(=O)c3ccc(CNC(=O)CCOCCNC(=O)c4ccc(CNC(=O)CCc5ccc6n5[B-](F)(F)[N+]5=C(c7ccc[nH]7)C=CC5=C6)cc4)cc3C2=O)CC1
2. COc1ccccc1N1CCN(CCCCN2C(=O)c3ccc(CNC(=O)CCOCCOCCOCCOCCNC(=O)CCc4ccc5n4[B-](F)(F)[N+]4=C(c6ccc[nH]6)C=CC4=C5)cc3C2=O)CC1

Response:
[1.92, 1.80]

For every listed record, write down its NanoBRET Fold Response.
1. CC(C)N(CC[C@H](c1ccccc1)c1cc(CCNC(=O)CCOCCOCCOCCOCCNC(=O)CCc2ccc3n2[B-](F)(F)[N+]2=C(c4ccc[nH]4)C=CC2=C3)ccc1O)C(C)C
2. O=C(CCOCCOCCOCCOCCNC(=O)CCc1ccc2n1[B-](F)(F)[N+]1=C(c3ccc[nH]3)C=CC1=C2)NCCCN1CCN(C2=Nc3ccccc3Oc3ccc(Cl)cc32)CC1

Response:
1. 0.96
2. 2.56

----------
molecular target: ADRA2B (Homo sapiens); construct: purchased Promega (in-house HiBiT-GPCR construct library, NanoBRET); assay: NanoBRET screen HiBiT-ADRA2B in HEK293; assay type: binding; conditions: ADRA2B; tracer 1μM
Sequence (P18089 whole entry): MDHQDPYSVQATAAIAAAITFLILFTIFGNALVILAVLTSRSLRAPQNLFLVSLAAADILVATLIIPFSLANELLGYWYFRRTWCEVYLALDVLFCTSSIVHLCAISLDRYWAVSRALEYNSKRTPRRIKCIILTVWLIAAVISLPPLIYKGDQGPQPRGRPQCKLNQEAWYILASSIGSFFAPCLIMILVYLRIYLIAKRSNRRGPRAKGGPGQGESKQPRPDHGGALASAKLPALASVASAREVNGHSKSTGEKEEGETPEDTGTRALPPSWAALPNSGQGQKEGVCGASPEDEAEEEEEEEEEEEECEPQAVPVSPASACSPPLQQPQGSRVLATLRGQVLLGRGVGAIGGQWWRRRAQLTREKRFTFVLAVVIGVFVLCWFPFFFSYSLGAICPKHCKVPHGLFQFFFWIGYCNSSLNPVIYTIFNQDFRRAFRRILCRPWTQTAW
Observation type: NanoBRET Fold Response

| Chem smiles | NanoBRET Fold Response |
| --- | --- |
| CC(C)N(CC[C@H](c1ccccc1)c1cc(CCNC(=O)c2ccc(CNC(=O)CCc3ccc4n3[B-](F)(F)[N+]3=C(c5ccc[nH]5)C=CC3=C4)cc2)ccc1O)C(C)C | 1.13 |
| CC(C)N(CC[C@H](c1ccccc1)c1cc(CCNC(=O)CCOCCOCCOCCOCCNC(=O)CCc2ccc3n2[B-](F)(F)[N+]2=C(c4ccc[nH]4)C=CC2=C3)ccc1O)C(C)C | 1.04 |
| CCCn1c(=O)c2[nH]c(-c3ccc(OCC(=O)NCCNC(=O)CCOCCNC(=O)c4ccc(CNC(=O)CCc5ccc6n5[B-](F)(F)[N+]5=C(c7ccc[nH]7)C=CC5=C6)cc4)cc3)nc2n(CCC)c1=O | 0.95 |
| N#CN=C(NCCCOc1cccc(CN2CCCCC2)c1)NCCNC(=O)CCOCCOCCOCCOCCNC(=O)CCc1ccc2n1[B-](F)(F)[N+]1=C(c3ccc[nH]3)C=CC1=C2 | 1.11 |
| COc1ccccc1N1CCN(CCCCN2C(=O)c3ccc(CNC(=O)CCOCCNC(=O)c4ccc(CNC(=O)CCc5ccc6n5[B-](F)(F)[N+]5=C(c7ccc[nH]7)C=CC5=C6)cc4)cc3C2=O)CC1 | 5.21 |
| COc1ccccc1N1CCN(CCCCN2C(=O)c3ccc(CNC(=O)CCOCCOCCOCCOCCNC(=O)CCc4ccc5n4[B-](F)(F)[N+]4=C(c6ccc[nH]6)C=CC4=C5)cc3C2=O)CC1 | 5.99 |

Consider the additional compound presented here.
The recorded NanoBRET Fold Response for entry O=C(CCOCCOCCOCCOCCNC(=O)CCc1ccc2n1[B-](F)(F)[N+]1=C(c3ccc[nH]3)C=CC1=C2)NCCCN1CCN(C2=Nc3ccccc3Oc3ccc(Cl)cc32)CC1 equals 5.35
